Biological target: SIRT1 (Homo sapiens, UniProt Q96EB6)
Construct: His-tag (N); made in house; host or cells: E. coli BL21(DE3), T7-promoter vector
Sequence (Q96EB6 whole entry): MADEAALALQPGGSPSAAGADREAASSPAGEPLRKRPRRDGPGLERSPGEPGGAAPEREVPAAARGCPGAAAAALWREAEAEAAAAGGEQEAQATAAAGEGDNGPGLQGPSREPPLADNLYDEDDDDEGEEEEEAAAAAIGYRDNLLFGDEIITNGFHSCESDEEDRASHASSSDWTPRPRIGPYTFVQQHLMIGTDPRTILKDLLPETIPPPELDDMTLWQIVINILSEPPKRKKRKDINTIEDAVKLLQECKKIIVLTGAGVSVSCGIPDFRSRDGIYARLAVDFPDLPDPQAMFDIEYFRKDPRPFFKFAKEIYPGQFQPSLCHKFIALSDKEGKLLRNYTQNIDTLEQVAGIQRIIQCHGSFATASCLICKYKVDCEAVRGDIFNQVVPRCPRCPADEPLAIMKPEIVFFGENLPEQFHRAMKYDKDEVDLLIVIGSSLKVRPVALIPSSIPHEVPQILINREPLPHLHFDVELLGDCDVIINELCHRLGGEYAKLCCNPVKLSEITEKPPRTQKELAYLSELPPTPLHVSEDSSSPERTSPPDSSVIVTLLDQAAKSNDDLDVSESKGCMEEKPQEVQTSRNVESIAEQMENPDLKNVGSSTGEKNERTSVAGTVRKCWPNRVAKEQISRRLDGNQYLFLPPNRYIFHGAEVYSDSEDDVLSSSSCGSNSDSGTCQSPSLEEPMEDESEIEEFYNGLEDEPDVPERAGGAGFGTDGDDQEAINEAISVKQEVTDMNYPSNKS
Experiment: Mass spectrometry based assay for modulators of SIRT1 activity (deacetylation of p53-based acetylated peptide)
Format: biochemical
Settings: concentration of test compound that results in 150% activation of SIRT1; 0.5 μM peptide substrate, 120 μM βNAD+, 10 nM SIRT1, 25 min, 25° C.
endpoint-label: EC1.5

> print(dat)
                                 smiles.str  endpoint.label       assay.result
1  O=C(Nc1cccn2cc(-c3cccc(-c4ccccc4)c3)nc12)c1cscn1           EC1.5    C (EC1.5>25 uM)
2  Cc1ncccc1-c1nc2c(C(=O)Nc3cccc(CN4CCOCC4)n3)cccn2n1           EC1.5  B (EC1.5 1-25 uM)
3  O=C(Nc1ccccn1)c1cccn2nc(-c3ccc(OCCN4CCOCC4)cc3C(F)F)nc12           EC1.5  B (EC1.5 1-25 uM)
4    O=C(Nc1nccs1)c1cccn2cc(-c3ccccc3F)nc12           EC1.5    C (EC1.5>25 uM)
